Measured values drawn from PubChem BioAssay (NCI) for this set.

Tested on: MDA-MB-231 breast
protocol.summary: NCI-60 one-dose screen, 48 h (100 = growth as untreated, 0 = no growth, -100 = all killed)
condition.label: 10 µM unless noted
About 83,000 compounds went through this panel and 20% of them were active in at least one assay; those are over-represented in the sample as a whole.
quantity.name: growth (%)
The response must be a number in % with no trailing unit.

Known value: MDA-MB-231 breast growth of the compound O=C(NNC(=S)Nc1ccccc1)c1ccc(Nc2ncnc3c2cnn3-c2cccc(Br)c2)cc1 equals 110

Known value: MDA-MB-231 breast growth of the compound CNCc1ccccc1CN(CC(=O)Nc1ccc2c(c1)CC1(C2)C(=O)Nc2ncccc21)C(=O)C(C)(C)C (stereo not given) equals 108

Known value: MDA-MB-231 breast growth of the compound CCCCCCCCNC(C)C(O)c1ccc(SC(C)C)cc1 (stereo not given) equals 89.7

Known value: MDA-MB-231 breast growth of the compound COc1ccc(C2=CC(c3ccc(OC)cc3Br)N3C=CSC3=N2)cc1 (stereo not given) equals 75

Known value: MDA-MB-231 breast growth of the compound Clc1ccc(Nc2ncnc3c2sc2ncccc23)c(Cl)c1 equals 61.1

Known value: MDA-MB-231 breast growth of the compound O=c1[nH]cnc2nc[nH]c12 equals 99

Known value: MDA-MB-231 breast growth of the compound CNCc1cccc2c1OCCOCCOCCC(C)S(=O)(=O)c1ccc(cc1)-c1cnc(N)c(n1)C(=O)N2 (stereo not given) equals 57.4

Known value: MDA-MB-231 breast growth of the compound COc1ccc(/C=c2\c(=O)n(-c3ccccc3)c3nn4c(=O)c(=O)[nH]nc4n23)cc1 equals 122

Known value: MDA-MB-231 breast growth of the compound COc1ccc(-c2oc(=O)ccc2-c2cc(OC)c(OC)c(OC)c2)cc1F equals 77.3

Known value: MDA-MB-231 breast growth of the compound Oc1ccc(Cl)cc1-c1cc(-c2ccccc2Cl)[nH]n1 equals 21.7

---

Test system: A549/ATCC NSCLC
protocol.summary: NCI-60 one-dose screen, 48 h
condition.label: 10 µM unless noted
The panel holds about 83,000 compounds, 20% with a hit somewhere; the sample as a whole holds those more often. The source made the active and inactive calls. How the source made its calls: active means growth percent below 10; inactive means the rest.
Lab note: assign the record to one of active, inactive

# fetch the recorded call for C=CCn1c(C)nc2cc(Nc3nc(N4CCOCC4)nc4nc[nH]c34)ccc21 here
inactive

# fetch the recorded call for NC(=O)c1noc(C(=O)c2ccccc2)c1N here
inactive

# fetch the recorded call for COc1cc(Cn2c(-c3ccccc3)cc3c2-c2oncc2CC3)cc(OC)c1OC here
inactive

# fetch the recorded call for Cc1c(C)c(C)c([N+](=O)[O-])c([N+](=O)[O-])c1C here
inactive

# fetch the recorded call for c1ccc(C(Nc2ccccn2)(c2ccccc2)c2ccccc2)cc1 here
inactive

# fetch the recorded call for CCc1oc2ccccc2c1C(=O)c1cc(I)c(O)c(I)c1 here
inactive

# fetch the recorded call for CC(=O)N(C)c1ccc(Nc2cc(C)[nH]c3ccc4ncnc4c23)cc1 here
inactive

# fetch the recorded call for CCOC(=O)NNc1cccc(Cl)c1 here
inactive

# fetch the recorded call for C=C(C)C1CCC2(C(=O)O)CCC3(C)C(CCC4C5(C)CCC(O)C(C)(C)C5CCC43C)C12 (stereo unspecified) here
active

# fetch the recorded call for O=[N+]([O-])c1cccc(N=C(Nc2cccc([N+](=O)[O-])c2)c2ccccc2)c1 here
inactive

# fetch the recorded call for Cc1cc(C)c2c(n1)sc1c(Nc3ccc(Cl)cc3Cl)ncnc12 here
inactive

---

Test system: EKVX NSCLC
protocol.summary: NCI-60 one-dose screen, 48 h (100 = growth as untreated, 0 = no growth, -100 = all killed)
condition.label: 10 µM unless noted
This is part of a sample that, as a whole, favours compounds with a hit. Of some 83,000 tested, about 20% had one in any assay.
Record form. Attribute: growth. Fill in for each entry.
The response must be a number in % with no trailing unit.

Known value: EKVX NSCLC growth of the compound COc1ccc(NC(=O)c2ccc(C(F)(F)F)nc2Nc2ccc(Cl)cc2C)cc1Cl equals 11.3

Known value: EKVX NSCLC growth of the compound CCCc1n(Cc2ccc3ccccc3c2)c2ccccc2[n+]1Cc1ccc2ccccc2c1 equals -4.84

Known value: EKVX NSCLC growth of the compound c1ccc(C(Nc2ccccn2)(c2ccccc2)c2ccccc2)cc1 equals 38.1

Known value: EKVX NSCLC growth of the compound CCc1ccc(Nc2ncnc3c2cnn3-c2cccc(Br)c2)cc1 equals 102

Known value: EKVX NSCLC growth of the compound COc1ccc2[nH]cc(/C=C3\C(=O)Nc4ccccc43)c2c1 equals 49

---

System: SK-OV-3 ovarian
protocol.summary: NCI-60 one-dose screen, 48 h (100 = growth as untreated, 0 = no growth, -100 = all killed)
condition.label: 10 µM unless noted
About 83,000 compounds went through this panel and 20% of them were active in at least one assay; those are over-represented in the sample as a whole. Calls of active or inactive are those of the source. The calls were made as follows: active = growth percent below 10; inactive = the rest.
quantity.name: growth

# growth of O=C1C=CC(=O)N1CO = 116% (inactive)

# growth of COc1ccccc1NC(=O)OCC12COCN1COC2 = 105% (inactive)

# growth of O=C1Cc2c([nH]c3ccc([N+](=O)[O-])cc23)-c2ccccc2N1 = 28.2% (inactive)

# growth of COc1ccc(-c2cnc3ccnn3c2-c2cc(OC)c(OC)c(OC)c2)cc1 = 32% (inactive)

# growth of CC(=O)OC1Oc2cc(C)c(C)cc2-c2oc(=O)c(-c3ccc(F)cc3)cc21 (stereo not given) = 79.1% (inactive)

# growth of CC(=O)O[C@H]1[C@H](CC#CC#CC[C@@H]2C[C@]3(C)[C@H]4CC=C5[C@H]6[C@@H](C)[C@H](C)CC[C@]6(C(=O)NCCN(CCN)CCN)CC[C@@]5(C)[C@]4(C)CC[C@H]3C(C)(C)[C@H]2OC(C)=O)C[C@]2(C)[C@H]3CC=C4[C@H]5[C@@H](C)[C@H](C)CC[C@]5(C(=O)NCCN(CCN)CCN)CC[C@@]4(C)[C@]3(C)CC[C@H]2C1(C)C = 89.2% (inactive)

# growth of Nc1cccc(S(=O)(=O)c2cccc(N)c2)c1 = 120% (inactive)

# growth of CC1=C(C(=O)Nc2ccc(F)cc2)C(c2ccc(C)cc2)C2=C(CC(C)(C)CC2=O)N1 (stereo not given) = 100% (inactive)

# growth of Cc1cc(C#Cc2ccccc2)ccc1-n1c(/C=C/c2ccc(F)cc2)nc2ccccc2c1=O = 89.9% (inactive)

# growth of COc1ccc(/C(=C\c2ccc3c(c2)OCO3)C(=O)Nc2nc3ccccc3s2)cc1 = 97.8% (inactive)

# growth of CC(CN1CCN(C)CC1)CN1c2ccccc2Sc2ccc(C(F)(F)F)cc21 (stereo not given) = 92.4% (inactive)

# growth of COc1ccc(C(=O)C(CN(C)C)c2ccccc2)cc1 (stereo not given) = 110% (inactive)

# growth of COc1c(B(O)O)cccc1-c1nc2ccc3[nH]ncc3c2c2c1CCCC2 = 6.76% (active)

# growth of NNC(=O)Cc1ccccc1 = 78.4% (inactive)

# growth of O=C(Cn1nncc1CN1C(=O)CSC1=O)Nc1ccc(F)cc1 = 90.8% (inactive)

# growth of Cn1c(=O)c2c3c(oc2c2ccccc21)C(=O)c1ccccc1C3=O = 93.6% (inactive)

# growth of Cc1n(Cc2ccc3ccccc3n2)cc[n+]1Cc1ccc2ccccc2c1 = -2.36% (active)

# growth of CCCCn1c(C)nc2ccc(Nc3nc(Cl)nc4nc[nH]c34)cc21 = 77% (inactive)

# growth of Clc1ccc2c(c1)-n1cccc1C(c1ccc3ccccc3c1)=NC2 = 94.5% (inactive)

# growth of CCN(CC)Cc1cc(Nc2ccnc3cc(Cl)ccc23)cc(-c2ccc(Cl)cc2)c1O = 48.1% (inactive)

---

System: SK-MEL-28 melanoma
protocol.summary: NCI-60 one-dose screen, 48 h (100 = growth as untreated, 0 = no growth, -100 = all killed)
condition.label: 10 µM unless noted
About 83,000 compounds went through this panel and 20% of them were active in at least one assay; those are over-represented in the sample as a whole.
Record form. Attribute: growth. Fill in for each entry.
The response must be a number in % with no trailing unit.

# growth of CCOC(=O)C1=C(C)NC(SCc2nnc(-c3ccc(Cl)cc3)o2)=NC1c1ccc(Cl)cc1 (centres undefined) = 79.8

# growth of CN(C)c1ccc(Nc2c3ccccc3nc3ccccc23)cc1 = 26

# growth of O=C(O)C1[S][Sb]([CH](C(=O)O)[CH](C(=O)O)[Sb]2[S]C(C(=O)O)C(C(=O)O)[S]2)[S]C1C(=O)O (centres undefined) = 61.1

# growth of CC(=O)N[C@@H](CCC(N)=O)C(=O)O = 101

# growth of CC(=O)N1N=C(c2ccc(C)cc2)CC1c1cn(-c2ccccc2)nc1-c1cccc(Nc2ccnc3cc(Cl)ccc23)c1 (centres undefined) = 51.9

# growth of C#CC[C@@H]1C[C@]2(C)[C@H]3CC[C@@H]4[C@H]5C(C(=C)C)CC[C@]5(C(=O)NCCN(CCN)CCN)CC[C@@]4(C)[C@]3(C)CC[C@H]2C(C)(C)[C@H]1OC(C)=O (some centres undefined) = 105

# growth of O=C1OCC2=C1C(c1ccc(Cl)c(Cl)c1)c1cc3c(cc1N2CCO)CCC3 (centres undefined) = 47.3

# growth of SCc1ccc(CS)cc1 = 112

# growth of C/C(CC(=O)NNc1ccc([N+](=O)[O-])cc1)=N\Nc1ccc([N+](=O)[O-])cc1 = 114
